# assayProcedure: PK after subcutaneous administration of solutions in dogs
# Type: in vivo, Beagle dog
# experimentalSetup: male, beagle, dog, plasma, sc, 12 mg/kg, dog #2; 96.0 h; SC 12 mg/kg, 400 mg/mL in 15% water/85% PEG 300
endpointName: concentration at 96 h (nM)

molecule	endpointName	unitText	readoutNumber
CC(C)(C#Cc1ccc(-c2ccc(Cl)c3c(NS(C)(=O)=O)nn(CC(F)(F)F)c23)c([C@H](Cc2cc(F)cc(F)c2)NC(=O)Cn2nc(C(F)(F)F)c3c2C(F)(F)[C@@H]2C[C@H]32)n1)S(C)(=O)=O [Formula (Ia)]	concentration at 96 h	nM	28.8

----------
Recorded EC50 Fold-Change values for a group of compounds are listed next.
# System: INSTI-resistant viruses
# assayProcedure: Cytopathic antiviral assay in MT-2 cells, INSTI-resistant viruses
# Format: cell-based, HIV-1
# experimentalSetup: N155H/Q148R, Mutant/WT (HXB2D) EC50 ratio, mean ± s.d. of three experiments
endpointName: EC50 Fold-Change

recordSmiles	endpointName	readoutNumber
COc1cc2c(cc1Cc1cccc(Cl)c1F)c(=O)c(C(=O)O)cn2[C@H](CO)C(C)C	EC50 Fold-Change	51.0
CC(C)(C#Cc1ccc(-c2ccc(Cl)c3c(NS(C)(=O)=O)nn(CC(F)(F)F)c23)c([C@H](Cc2cc(F)cc(F)c2)NC(=O)Cn2nc(C(F)(F)F)c3c2C(F)(F)[C@@H]2C[C@H]32)n1)S(C)(=O)=O	EC50 Fold-Change	1.3
C[C@@H]1CCO[C@H]2Cn3cc(C(=O)NCc4ccc(F)cc4F)c(=O)c(O)c3C(=O)N12	EC50 Fold-Change	1.5
O=C1Nc2ccc(Cl)cc2[C@@](C#CC2CC2)(C(F)(F)F)O1	EC50 Fold-Change	1.1
COC(=O)N[C@H](C(=O)N[C@@H](Cc1ccccc1)[C@@H](O)CN(Cc1ccc(-c2ccccn2)cc1)NC(=O)[C@@H](NC(=O)OC)C(C)(C)C)C(C)(C)C	EC50 Fold-Change	0.9
Cc1nnc(C(=O)NC(C)(C)c2nc(C(=O)NCc3ccc(F)cc3)c(O)c(=O)n2C)o1	EC50 Fold-Change	13.9

----------
# assayProcedure: PK after subcutaneous administration of solutions in dogs
# Format: in vivo, Beagle dog
# experimentalSetup: male, beagle, dog, plasma, sc, 12 mg/kg, dog #2; 1.0 h; SC 12 mg/kg, 400 mg/mL in 15% water/85% PEG 300

recordSmiles	concentration at 1 h, nM
CC(C)(C#Cc1ccc(-c2ccc(Cl)c3c(NS(C)(=O)=O)nn(CC(F)(F)F)c23)c([C@H](Cc2cc(F)cc(F)c2)NC(=O)Cn2nc(C(F)(F)F)c3c2C(F)(F)[C@@H]2C[C@H]32)n1)S(C)(=O)=O	1.2

----------
# assayProcedure: PK after subcutaneous administration of solutions in dogs
# Format: in vivo, Beagle dog
# experimentalSetup: beagle, dog, plasma, sc, 12 mg/kg, dog; SC 12 mg/kg; 300 mg/mL solution (w/w %: 9.8 water, 65.0 PEG 300, 25.2 Formula (Ia)); mean ± SD, n=3
endpointName: Cmax (nM)

compound	endpointName	readoutNumber
CC(C)(C#Cc1ccc(-c2ccc(Cl)c3c(NS(C)(=O)=O)nn(CC(F)(F)F)c23)c([C@H](Cc2cc(F)cc(F)c2)NC(=O)Cn2nc(C(F)(F)F)c3c2C(F)(F)[C@@H]2C[C@H]32)n1)S(C)(=O)=O [Formula (Ia)]	Cmax	133

----------
# assayProcedure: PK after subcutaneous administration of solutions in dogs
# Assay type: in vivo, Beagle dog
# experimentalSetup: male, beagle, dog, plasma, sc, 12 mg/kg, dog #1; 48.0 h; SC 12 mg/kg, 400 mg/mL in 15% water/85% PEG 300

recordSmiles	concentration at 48 h
CC(C)(C#Cc1ccc(-c2ccc(Cl)c3c(NS(C)(=O)=O)nn(CC(F)(F)F)c23)c([C@H](Cc2cc(F)cc(F)c2)NC(=O)Cn2nc(C(F)(F)F)c3c2C(F)(F)[C@@H]2C[C@H]32)n1)S(C)(=O)=O	54.6 nM

----------
# assayProcedure: PK after subcutaneous administration of solutions in dogs
# Format: in vivo, Beagle dog
# experimentalSetup: beagle, dog, plasma, sc, 12 mg/kg; SC 12 mg/kg; 400 mg/mL solution in 10% ethanol, 13% water, 77% PEG 200; mean ± SD, n=3

recordSmiles	unitText	Tmax
CC(C)(C#Cc1ccc(-c2ccc(Cl)c3c(NS(C)(=O)=O)nn(CC(F)(F)F)c23)c([C@H](Cc2cc(F)cc(F)c2)NC(=O)Cn2nc(C(F)(F)F)c3c2C(F)(F)[C@@H]2C[C@H]32)n1)S(C)(=O)=O	days	14

----------
# assayProcedure: PK after subcutaneous administration of solutions in dogs
# Assay type: in vivo, Beagle dog
# experimentalSetup: beagle, dog, plasma, sc, 12 mg/kg, dog; SC 12 mg/kg; 300 mg/mL solution (w/w %: 23.2 water, 50.0 PEG 300, 25.7 Formula (Ia), 1.1 NaOH); mean ± SD, n=3

recordSmiles	Tmax
CC(C)(C#Cc1ccc(-c2ccc(Cl)c3c(NS(C)(=O)=O)nn(CC(F)(F)F)c23)c([C@H](Cc2cc(F)cc(F)c2)NC(=O)Cn2nc(C(F)(F)F)c3c2C(F)(F)[C@@H]2C[C@H]32)n1)S(C)(=O)=O	12.3 days

----------
# assayProcedure: PK after oral administration of spray-dried dispersion (SDD) tablets in dogs
# Assay type: in vivo
# experimentalSetup: dog, plasma; beagle dogs; oral SDD tablet of the sodium salt (Table T composition, Opadry II White film coat), 300 mg fixed dose; mean ± SD, n=6; read-out: C72h

compound	concentration at 72 h
CC(C)(C#Cc1ccc(-c2ccc(Cl)c3c(NS(C)(=O)=O)nn(CC(F)(F)F)c23)c([C@H](Cc2cc(F)cc(F)c2)NC(=O)Cn2nc(C(F)(F)F)c3c2C(F)(F)[C@@H]2C[C@H]32)n1)S(C)(=O)=O [Formula (Ia)]	61.4 nM

----------
# assayProcedure: PK after oral administration in liquid-filled capsules in dogs
# Format: in vivo, beagle dogs
# experimentalSetup: dog, plasma; fasted, pentagastrin-pretreated male beagle dogs; oral LFC 7.5 mg fixed dose; 20% caprylocaproyl polyoxyl-8 glycerides and 80% glycerol monocaprylocaprate; 100 mg/mL; mean ± SD, n=6

compound	Tmax [h]
CC(C)(C#Cc1ccc(-c2ccc(Cl)c3c(NS(C)(=O)=O)nn(CC(F)(F)F)c23)c([C@H](Cc2cc(F)cc(F)c2)NC(=O)Cn2nc(C(F)(F)F)c3c2C(F)(F)[C@@H]2C[C@H]32)n1)S(C)(=O)=O [Formula (Ia)]	7.7

----------
# assayProcedure: PK after subcutaneous administration of solutions in rats
# Assay type: in vivo, Wistar Han rat
# experimentalSetup: male, Wistar Han, rat, plasma, sc, 50 mg/kg, rat #2; 72 h; SC 50 mg/kg, 300 mg/mL in 15% water/85% PEG 300
endpointName: concentration at 72 h (nM)

recordSmiles	endpointName	readoutNumber
CC(C)(C#Cc1ccc(-c2ccc(Cl)c3c(NS(C)(=O)=O)nn(CC(F)(F)F)c23)c([C@H](Cc2cc(F)cc(F)c2)NC(=O)Cn2nc(C(F)(F)F)c3c2C(F)(F)[C@@H]2C[C@H]32)n1)S(C)(=O)=O	concentration at 72 h	66.9

----------
# assayProcedure: PK after subcutaneous administration of solutions in dogs
# Format: in vivo, Beagle dog
# experimentalSetup: male, beagle, dog, plasma, sc, 12 mg/kg, male beagle dog; single SC 12 mg/kg; 400 mg/mL in 85% PEG300 and 15% water; mean ± SD, n=3; read-out: AUC0-72h

recordSmiles	unitText	AUC(0-t)
CC(C)(C#Cc1ccc(-c2ccc(Cl)c3c(NS(C)(=O)=O)nn(CC(F)(F)F)c23)c([C@H](Cc2cc(F)cc(F)c2)NC(=O)Cn2nc(C(F)(F)F)c3c2C(F)(F)[C@@H]2C[C@H]32)n1)S(C)(=O)=O	µM·h	2.04

----------
# assayProcedure: PK after subcutaneous administration of solutions in dogs
# Type: in vivo, Beagle dog
# experimentalSetup: male, beagle, dog, plasma, sc, 12 mg/kg, dog #1; 8.0 h; SC 12 mg/kg, 400 mg/mL in 15% water/85% PEG 300

molecule	unitText	concentration at 8 h
CC(C)(C#Cc1ccc(-c2ccc(Cl)c3c(NS(C)(=O)=O)nn(CC(F)(F)F)c23)c([C@H](Cc2cc(F)cc(F)c2)NC(=O)Cn2nc(C(F)(F)F)c3c2C(F)(F)[C@@H]2C[C@H]32)n1)S(C)(=O)=O [Formula (Ia)]	nM	10.6

----------
# assayProcedure: PK after subcutaneous administration of solutions in rats
# Format: in vivo, Wistar Han rat
# experimentalSetup: male, Wistar Han, rat, plasma, sc, 50 mg/kg, rat #1; 504 h; SC 50 mg/kg, 300 mg/mL in 15% water/85% PEG 300
# Method: Formulations containing the compound of Formula (Ia) were prepared as aqueous solutions or oral formulations and administered subcutaneously to rats, dogs, cynomolgus monkey, and/or rhesus monkey. A solution of the compound of Formula (Ia) in 10% ethanol, 13% water, and 77% PEG 200 (400 mg/mL) was prepared. The solution was administered subcutaneously to dogs at a dose of 12 mg/kg and rats at a dose of 50 mg/kg and the pharmacokinetic (PK) profile was determined. […]

recordSmiles	concentration at 504 h / nM
CC(C)(C#Cc1ccc(-c2ccc(Cl)c3c(NS(C)(=O)=O)nn(CC(F)(F)F)c23)c([C@H](Cc2cc(F)cc(F)c2)NC(=O)Cn2nc(C(F)(F)F)c3c2C(F)(F)[C@@H]2C[C@H]32)n1)S(C)(=O)=O	327
